# Tested on: HT-29
# measurement_description: Growth inhibition of human HT-29 cells after 72 hrs by cell titer glo assay
# Format: functional, cell-based
# settings: HT-29, 72 h
Recorded IC50 by entry

Recorded results for 3 compounds are shown here.
>>> print(df.to_string())
                                  structure  assay_metric  value_measured
0  O=C1[C@H]2Cc3c([nH]c4ccccc34)[C@H](c3ccccc3Br)N2C(=O)CN1Cc1ccccc1          IC50        > 100 µM
1  O=C1[C@@H]2Cc3c([nH]c4ccccc34)[C@@H](c3ccccc3Br)N2C(=O)CN1Cc1ccccc1          IC50        > 100 µM
2  CCCCN1CC(=O)N2[C@@H](c3ccccc3Br)c3[nH]c4ccccc4c3C[C@H]2C1=O          IC50        > 100 µM

The measured IC50 associated with CN1CC(=O)N2[C@H](c3ccc4c(c3)OCO4)c3[nH]c4ccccc4c3C[C@@H]2C1=O reads > 100 µM

The measured IC50 associated with CCN1C(=O)[C@H]2Cc3c([nH]c4ccccc34)[C@H](c3ccccc3Br)N2C1=S reads > 100 µM

The measured IC50 associated with O=C1[C@@H]2Cc3c([nH]c4ccccc34)[C@H](c3ccccc3Br)N2C(=O)CN1Cc1ccccc1 reads > 100 µM

The measured IC50 associated with CCN1CC(=O)N2[C@H](c3ccccc3Br)c3[nH]c4ccccc4c3C[C@@H]2C1=O reads > 100 µM

The measured IC50 associated with COC(=O)[C@H]1Cc2c([nH]c3ccccc23)[C@H](c2ccccc2Br)N1C(=O)CCl reads > 100 µM

The measured IC50 associated with CCCCN1CC(=O)N2[C@H](c3ccccc3Br)c3[nH]c4ccccc4c3C[C@H]2C1=O reads > 100 µM
